Experiment: sensitizers of A549 cells to miR-34 induction, primary screen, imaging, A549 dox-inducible miR-34, nuclei and caspase counts (AID 1347080); further: test concentration not given here
Details: A549 miR-34 inducible, Hoechst nuclei count, 48 h; measured here: relative caspase fold change +Dox/-Dox
parameterMeasured: fold change
Simply state the number, no unit and no words.

stdin: I am curious: what fold change value has been reported for CC(C)c1nc(N(C)S(C)(=O)=O)nc(-c2ccc(F)cc2)c1/C=C/[C@@H](O)C[C@@H](O)CC(=O)O ?
stdout: 2.33

stdin: Given the compound NS(=O)(=O)c1ccc(C(=O)O)cc1 , what is its reported fold change?
stdout: 1.07

stdin: Give the measured fold change of CC(CNC1CCCCC1)OC(=O)c1ccccc1 (stereo not given) .
stdout: 0.946

stdin: Sample NC(=O)Cc1cccc(C(=O)c2ccccc2)c1N — what was its fold change?
stdout: 0.903

stdin: What fold change value was documented for this compound, O=C(Oc1cccc2cccnc12)c1ccccc1 ?
stdout: 5.26

stdin: Entry CC(O)Cn1cnc2c1c(=O)n(C)c(=O)n2C (stereo not given) has what fold change?
stdout: 1.1

stdin: Item NC(=O)OCC(O)COc1ccc(Cl)cc1 (stereo not given) has what recorded fold change?
stdout: 2.23

stdin: Return reported fold change; argument: CCCCCCC[N+](CC)(CC)CCCCc1ccc(Cl)cc1
stdout: 1.54

stdin: I have this compound here, O=C(O)CN(CCN(CC(=O)O)CC(=O)O)CC(=O)O , and I need its recorded fold change.
stdout: 3.42

stdin: For the compound shown here, COC(=O)[C@@H]1CC2=CC(=O)CC[C@]2(C)[C@@]23O[C@@H]2C[C@@]2(C)[C@@H](CC[C@@]24CCC(=O)O4)[C@H]13 , give the reported fold change.
stdout: 1.45

stdin: Record request: fold change value, item COc1ccc(CCN(C)CCCN2CCc3cc(OC)c(OC)cc3CC2=O)cc1OC
stdout: 1.41

stdin: Fill in the blank: the reported fold change of CCCCC(CC)COC(=O)CC(C(=O)OCC(CC)CCCC)S(=O)(=O)O (stereo not given) is ____.
stdout: 1.07

stdin: Give the measured fold change of CC(=O)CC(c1ccc([N+](=O)[O-])cc1)c1c(O)c2ccccc2oc1=O (stereo not given) .
stdout: 1.68

stdin: Consider the compound O=C(O)CP(=O)(O)O and give its measured fold change.
stdout: 1.06

stdin: Need fold change, item COP(=O)(OC)OC(c1ccc(Cl)cc1)P(=O)(OC)OC (stereo not given)
stdout: 1.41

stdin: For the compound shown here, C=C[C@H]1CN2CCC1C[C@@H]2[C@@H](O)c1ccnc2ccc(OC)cc12 (stereo not given in full) , give the reported fold change.
stdout: 1.29

stdin: Need fold change, item O=[N+]([O-])c1ccc(O)c2ncccc12
stdout: 0.972

stdin: Entry CN(C)CCCSc1ccccc1NC(=O)C=Cc1ccccc1 : reported fold change = ?
stdout: 1.81

stdin: Quick check: fold change of CC[C@H]1OC(=O)C[C@@H](O)[C@H](C)[C@@H](O[C@@H]2O[C@H](C)[C@@H](O[C@H]3C[C@@](C)(O)[C@@H](O)[C@H](C)O3)[C@H](N(C)C)[C@H]2O)[C@@H](CC=O)C[C@@H](C)C(=O)/C=C/C(C)=C/[C@@H]1CO[C@@H]1O[C@H](C)[C@@H](O)[C@@H](OC)[C@H]1OC ?
stdout: 5.16

stdin: Requested read-out: fold change. Entry: C[C@H]1[C@H](C)CC[C@]2(C(=O)O)CC[C@]3(C)C(=CC[C@@H]4[C@@]5(C)CC[C@H](O)C(C)(C)[C@@H]5CC[C@]43C)[C@H]12
stdout: 1.58

Reference source for all entries: PubChem BioAssay
